# measured target: UniProt P43405
# experimental protocol: Syk kinase inhibition test (HTRF method)
# Format: biochemical
# measurement parameters: Tables 1-x, compounds A; read-out: sykHTRF ave IC50
Where a name gives a salt, the structure may show the parent alone.
# IC50 annotations
measured property: IC50

compound: Cc1ccnc(Nc2cccc(-c3cnc(N4CCC(CC(=O)NS(C)(=O)=O)CC4)s3)n2)c1 [Compound A-633]
value reported: < 0.1 µM
--
compound: CNC(=O)C1CCN(Cc2ncc(-c3cccc(Nc4cc(C)ccn4)n3)s2)CC1 [Compound A-686]
value reported: 0.1 to 1 µM
--
compound: Cc1ccnc(Nc2cccc(-c3cnc(N(C)CCC/C=C/C(=O)O)s3)n2)c1 [Compound A-640, dihydrochloride]
value reported: < 0.1 µM
--
compound: O=C(O)CC1CCN(c2ncc(-c3cccc(Nc4ccc(Cl)cn4)n3)s2)CC1 [Compound A-636, dihydrochloride]
value reported: < 0.1 µM
--
compound: COCCNC(=O)C1CCN(c2ncc(-c3cccc(Nc4cc(C)ccn4)n3)s2)CC1 [Compound A-435]
value reported: 0.1 to 1 µM
--
compound: C=CCN(CC=C)c1ncc(-c2cccc(Nc3cc(C)ccn3)n2)s1 [Compound A-507]
value reported: < 0.1 µM
--
compound: CC(C)(C(=O)O)C1CCN(c2ncc(-c3cccc(Nc4cnccn4)n3)s2)CC1 [Compound A-707, dihydrochloride]
value reported: < 0.1 µM
